These measurements were taken from patent US20100119479A1.

assay system: full-length NS3/NS4A-2 (HCV NS3 protease) (Hepatitis C virus genotype 1b)
Construct: Recombinant E. coli or Baculovirus full-length NS3
Sequence (Q9WMX2 1027-1657): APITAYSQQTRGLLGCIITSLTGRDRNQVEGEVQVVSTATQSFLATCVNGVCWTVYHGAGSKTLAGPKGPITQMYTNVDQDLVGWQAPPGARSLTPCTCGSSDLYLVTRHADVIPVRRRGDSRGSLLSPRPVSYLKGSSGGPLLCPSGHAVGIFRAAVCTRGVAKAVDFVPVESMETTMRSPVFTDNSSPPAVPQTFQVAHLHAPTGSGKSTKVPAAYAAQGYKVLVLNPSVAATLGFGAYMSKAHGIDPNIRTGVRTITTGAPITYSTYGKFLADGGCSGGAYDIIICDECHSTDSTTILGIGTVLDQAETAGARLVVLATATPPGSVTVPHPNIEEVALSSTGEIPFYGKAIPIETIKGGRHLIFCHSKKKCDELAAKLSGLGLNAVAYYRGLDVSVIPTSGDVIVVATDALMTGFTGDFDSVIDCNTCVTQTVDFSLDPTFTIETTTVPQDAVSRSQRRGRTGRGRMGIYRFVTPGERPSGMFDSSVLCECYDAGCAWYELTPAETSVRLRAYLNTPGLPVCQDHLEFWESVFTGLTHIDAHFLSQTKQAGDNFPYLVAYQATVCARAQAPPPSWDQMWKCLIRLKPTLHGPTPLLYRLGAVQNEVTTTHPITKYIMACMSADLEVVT
Sequence (Q9WMX2 1658-1711): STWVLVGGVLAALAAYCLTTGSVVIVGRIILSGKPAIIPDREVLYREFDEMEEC
experiment: NS3 Inhibition Assay (NS3-NS4 protease assay, RETS1 substrate)
condition description: NS3/NS4A-2 protease
recorded endpoint: IC50

Value (IC50, full-length NS3/NS4A-2 (HCV NS3 protease) (Hepatitis C virus genotype 1b)) for record CC[C@@H]1C[C@]1(NC(=O)[C@@H]1CC(Oc2cc(-c3nc(C(C)C)cs3)nc3c(C)c(OC)ccc23)CN1C(=O)[C@@H](Nc1cccc(C(F)(F)F)c1)C(C)(C)C)C(=O)NS(=O)(=O)C1CC1 (stereo partly drawn) = < 100 nM

Value (IC50, full-length NS3/NS4A-2 (HCV NS3 protease) (Hepatitis C virus genotype 1b)) for record `CC[C@@H]1C[C@]1(NC(=O)[C@@H]1C[C@@H](Oc2cc(-c3ccccc3)nc3cc(OC)ccc23)CN1C(=O)[C@@H](Nc1cccc(C(F)(F)F)c1)C(C)(C)C)C(=O)NS(=O)(=O)C1(C)CC1` = < 100 nM

Value (IC50, full-length NS3/NS4A-2 (HCV NS3 protease) (Hepatitis C virus genotype 1b)) for record `CC[C@@H]1C[C@]1(NC(=O)[C@@H]1C[C@@H](OC(=O)N2Cc3cccc(Cl)c3C2)CN1C(=O)[C@@H](Nc1ccc(F)c(C(F)(F)F)c1)C(C)(C)C)C(=O)NS(=O)(=O)C1(C)CC1` = < 100 nM
